The next entries give measured pIC50 for human FXa (Homo sapiens).
One number for each entry, as −log10 of the molar value.

For every item below, please supply its pIC50.
1. CN1CC23CN(S(=O)(=O)c4cc5cc(Cl)ccc5[nH]4)CC(=O)N2CC2(CCN(C4=NCCO4)CC2)N3C1=O (single isomer, unassigned; (-))
2. CN1CC23CN(S(=O)(=O)c4cc5ccc(Cl)cc5s4)CC(=O)N2CC2(CCN(C4=NCCCC4)CC2)N3C1=O (single isomer, unassigned; (-))
3. CN1CC23CN(S(=O)(=O)c4cc5cc(Cl)ccc5[nH]4)CC(=O)N2CC2(CCN(C4=NCCCC4)CC2)N3C1=O (single isomer, unassigned; (-))
4. CN1CC23CN(S(=O)(=O)c4cc5cc(Cl)ccc5[nH]4)CC(=O)N2CC2(CCN(C4=NCCCO4)CC2)N3C1=O (single isomer, unassigned; (-))
5. CN1CC23CN(S(=O)(=O)c4cc5ccc(Cl)cc5s4)CC(=O)N2CC2(CCN(C4=NCCO4)CC2)N3C1=O (single isomer, unassigned; (-))
6. O=C1CN(S(=O)(=O)c2ccc3cc(Cl)ccc3c2)CC23CNC(=O)N2C2(CCN(C4=NCCO4)CC2)CN13 (racemic)

a:
1: 9.40; 2: 8.44; 3: 8.52; 4: 8.37; 5: 8.33; 6: 8.32

# CCC(=O)N1CCC2(CC1)CN1C(=O)CN(S(=O)(=O)c3cc4cc(Cl)ccc4[nH]3)CC13CN(C)C(=O)N23 (single isomer, unassigned; (-)) with human FXa (Homo sapiens): pIC50 is 8.40
